target: EGFRvIII, full length, expressed on cells (human, UniProt P00533 25-1210); experiment: cell-based or functional assay
EXPERIMENTAL_ENDPOINT: % internalization (%)
Response body: numeric value in %, unit text excluded.

SC-EGFRvIII-XG1-139 (antibody, IgG1, V domains shown, Recombinant IgG1 kappa; also called sc139; SC139) VH: EVQVLESGGGLVQPGGSLRLSCAASGFTFSSYAMSWVRQAPGKGLEWVSAISGSGGSTNYADSVKGRFTISRDNSKNTLYLQMNSLRAEDTAVYYCAGSSGWSEYWGQGTLVTVSS VL: DIQMTQSPSSLSASVGDRVTITCRASQGIRNNLAWYQQKPGKAPKRLIYAASNLQSGVPSRFTGSGSGTEFTLIVSSLQPEDFATYYCLQHHSYPLTSGGGTKVEIK :: 80.8
antibody 095 (antibody, IgG1, V domains shown, Recombinant IgG1 kappa; also called sc95; SC95) VH: QVQLQESGPFLVKPSQTLSLTCTVSGGSISSGGYYWSWIRQHPGKGLEWIGFIYYRGNTYYNPSLKSRVTISVDTSKNQFSLKLSSVTAADTAVYYCARDGYCSRTGCYGGWFDPWGQGTLVTVSP VL: DIVMTQTPLSSPVTLGQPASISCRSSQSLIHTDGNIYLSWLQQRPGQPPRLLIYKISNRFSGVPDRFSGSGAGTDFTLKISRVEAEDVGVYYCMQGTQFPITFGQGTRLEIK :: 72.4

Now consider the entry below.
So what's the measured % internalization for this one? SC-EGFRvIII-XG2-170 (antibody, IgG1, V domains shown, kappa light chain; also called sc170; SC170) VH: QVQLQQSGPGLVKPSQTLSLTCAISGDSVSSNNAAWNWIRQSPARGLEWLGRTYYRSKWYNDYVVSVKSRITINPDTSKNQFSLQLNSVTPEDTAVYYCVRATAFDYWGQGTLVTVSS VL: AIVLTQTPLSSPVTLGQPASISCRSSQSLVHRDGNTYLSWLQQRPGQPPRLLIYKISNRFSGVPDRFSGSGAGTDFTLKISRVEPDDVGVYYCMHTTQLPWTFGQGTKVEIK 20.1
